Assay: BSK_4H_SRB: Viability Assessment in the BioMAP Diversity Plus: 4H Assay (AID 2283027);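 also: cells exposed to compound for 24 h before staining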
Details: primary human endothelial cells (HUVEC)
Method: BSK_4H is a cell-based, multiplexed-readout assay that uses umbilical vein endothelium, a human vascular primary cell, with measurements taken at 24 hours after chemical dosing in a 96-well plate.BSK_4H_SRB is an assay component measured in the BSK_4H assay. It measures […] related to cell death using Sulforhodamine staining technology.Data from the assay component BSK_4H_SRB was analyzed into 1 assay endpoint. […]
Calls of active or inactive are those of the source. The calls were made as follows: active = hit-call score of the fitted dose curve at least 0.9, where 1 is the maximum; inactive = score below 0.9.
Your reply should match one of these outcome classes. active, inactive

smilesData	category
Nc1ncc([N+](=O)[O-])s1	inactive
CCCCCCCCc1ccc(O)cc1	active
O=C(O)CCC(F)(C(F)(F)F)C(F)(F)F	inactive
C[C@@H]1C[C@@H]([C@H](O)CC2CC(=O)NC(=O)C2)C(=O)[C@@H](C)C1	active
BrCCBr	inactive
CCOP(=S)(OCC)Oc1nc(Cl)c(Cl)cc1Cl	inactive
O=C(Nc1ccc2[nH]ccc2c1)c1cc2cc(F)ccc2n1Cc1cccc(F)c1	active

Each compound tested received a call. Report the one for Cc1ccccc1N .
inactive

----------
Read-out: Vascular cell adhesion molecule 1 (VCAM1), VCAM1 (gene 7412)
Assay: BSK_LPS_VCAM1: BioMAP Diversity Plus: LPS Assay for Vascular cell adhesion molecule 1 (VCAM1) Biomarker Activity (AID 2283086)
Conditions: primary human HUVEC with PBMC; actives raise or lower the signal
Active and inactive are the calls of the source. How the source made its calls: active means hit-call score of the fitted dose curve at least 0.9, where 1 is the maximum; inactive means score below 0.9.
Your reply should match one of these outcome classes. TRUE = active, FALSE = inactive

Field: example entries. Status: answers known.
molecule	category
O=c1[nH]c(=O)[nH]c(=O)[nH]1	FALSE
CCC(=O)C(CC(C)N(C)C)(c1ccccc1)c1ccccc1 (centres undefined)	FALSE
O=C(O)C(F)(F)C(F)(F)C(F)(F)C(F)(F)C(F)(F)C(F)(F)F	FALSE
CCOP(=S)(OCC)SCCS(=O)(=O)CC	FALSE
C(=NC1CCCCC1)=NC1CCCCC1	TRUE
CCCCCCCCC(=O)NCc1ccc(O)c(OC)c1	FALSE
CC(=O)OC(c1ccccc1)C(Cl)(Cl)Cl (centres undefined)	FALSE
COP(=S)(OC)Oc1cc(Cl)c(Cl)cc1Cl	FALSE
CCCCC(CC)CO[N+](=O)[O-] (centres undefined)	FALSE
C=CC(=O)OCCCCCC(C)C	FALSE

Turning to the following molecule.
Each molecule tested received a call. Report the one for COC(=O)c1sccc1S(=O)(=O)NC(=O)Nc1nc(C)nc(OC)n1 .
FALSE

----------
Test: BSK_hDFCGF_Proliferation: Cell Proliferation Assessment in the BioMAP Diversity Plus: hDFCGF Assay (AID 2283059);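 also: curves fitted for both rise and fall of signal versus DMSO baseline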
Conditions: primary human foreskin fibroblasts
Calls of active or inactive are those of the source. Rule for the calls: active = hit-call score of the fitted dose curve at least 0.9, where 1 is the maximum; inactive = score below 0.9.
measurementName: AC50

Some solved entries appear below for comparison.
smilesData	AC50
O=C(O)CCC(F)(C(F)(F)F)C(F)(F)F	inactive
COC[C@H](C)N(C(=O)CCl)c1c(C)csc1C	inactive
Nc1ncc([N+](=O)[O-])s1	inactive
CCOP(=S)(OCC)Oc1nc(Cl)c(Cl)cc1Cl	14.9 µM (active)
CC(C)c1ccc(CO)cc1	inactive

// switching to the query compound
Data request, read-out AC50, for O=Cc1cccc(Oc2ccccc2)c1
inactive
